Molecular target: human recombinant HDAC6 (Homo sapiens, UniProt Q9UBN7)
Sequence (Q9UBN7 1-1215): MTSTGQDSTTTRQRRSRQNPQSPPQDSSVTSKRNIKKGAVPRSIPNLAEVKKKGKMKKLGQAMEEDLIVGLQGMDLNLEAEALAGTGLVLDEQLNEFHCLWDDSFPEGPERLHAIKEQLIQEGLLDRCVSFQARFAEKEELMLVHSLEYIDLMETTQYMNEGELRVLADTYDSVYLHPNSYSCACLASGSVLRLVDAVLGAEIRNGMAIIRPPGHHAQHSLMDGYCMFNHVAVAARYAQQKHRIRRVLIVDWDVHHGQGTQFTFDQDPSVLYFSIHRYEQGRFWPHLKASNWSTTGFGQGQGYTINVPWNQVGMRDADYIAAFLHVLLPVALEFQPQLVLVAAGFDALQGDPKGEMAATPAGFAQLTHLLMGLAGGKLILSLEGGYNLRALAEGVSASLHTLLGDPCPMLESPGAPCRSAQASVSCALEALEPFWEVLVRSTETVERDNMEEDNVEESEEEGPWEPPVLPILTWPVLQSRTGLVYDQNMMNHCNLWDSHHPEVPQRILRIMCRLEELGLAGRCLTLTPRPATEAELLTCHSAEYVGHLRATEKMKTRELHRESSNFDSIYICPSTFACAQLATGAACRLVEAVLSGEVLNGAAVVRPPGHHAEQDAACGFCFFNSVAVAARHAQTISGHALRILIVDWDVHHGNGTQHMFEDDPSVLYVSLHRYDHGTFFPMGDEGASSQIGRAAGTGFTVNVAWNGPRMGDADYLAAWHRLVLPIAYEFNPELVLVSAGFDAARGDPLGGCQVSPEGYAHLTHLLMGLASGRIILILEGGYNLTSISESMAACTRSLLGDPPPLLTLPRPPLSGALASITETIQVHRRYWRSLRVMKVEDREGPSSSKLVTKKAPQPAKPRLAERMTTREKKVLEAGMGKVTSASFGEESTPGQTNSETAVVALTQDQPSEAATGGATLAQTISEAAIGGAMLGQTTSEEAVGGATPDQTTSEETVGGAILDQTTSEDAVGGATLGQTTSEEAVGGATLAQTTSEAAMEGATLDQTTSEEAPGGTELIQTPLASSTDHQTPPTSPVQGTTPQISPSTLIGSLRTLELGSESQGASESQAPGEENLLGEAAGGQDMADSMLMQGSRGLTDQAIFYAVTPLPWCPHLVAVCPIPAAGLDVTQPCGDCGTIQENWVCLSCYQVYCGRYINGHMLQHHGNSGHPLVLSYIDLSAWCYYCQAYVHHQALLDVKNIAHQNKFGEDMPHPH
Experiment: HDAC6 enzyme activity inhibition test (HDAC Fluorometric Drug Discovery Kit)
Conditions: human recombinant HDAC6; same protocol as HDAC1
pIC50: −log10 of the molar value.
MEASUREMENT_LABEL: pIC50

# example entries with known answers
CN1CCC(c2cccc(-c3nn(Cc4ccc(-c5nnc(C(F)F)o5)cn4)c(=O)s3)c2F)CC1 [Compound 41] = 7.26
FC(F)c1nnc(-c2ccc(Cn3nc(-c4ccc(CN5CC[C@H](F)C5)s4)oc3=S)nc2)o1 [Compound 125] = 7.05
FC(F)c1nnc(-c2ccc(Cn3nc(-c4ccccc4)oc3=S)nc2)o1 [Compound 45] = 7.04
O=c1oc(-c2cccc(N3CCN(C4CCC4)CC3)c2)nn1Cc1ccc(-c2nnc(C(F)F)o2)cn1 [Compound 39] = 7.08
O=C1OCC(c2cccs2)=NN1Cc1ncc(-c2nnc(C(F)F)o2)cc1F [Compound 70] = 6.96
O=c1oc(-c2cccc3[nH]ccc23)nn1Cc1ncc(-c2nnc(C(F)F)o2)cc1F [Compound 35] = 7.11
CN1CCc2cc(-c3nn(Cc4ccc(-c5nnc(C(F)F)o5)cn4)c(=S)o3)sc2C1 [Compound 139] = 7.04
CN1CC(N2CCC(c3cccc(-c4nn(Cc5ccc(-c6nnc(C(F)F)o6)cn5)c(=O)o4)c3F)CC2)C1 [Compound 27] = 6.92

(P) O=C1OCC(c2ccc(-c3ccccn3)s2)=NN1Cc1ccc(-c2nnc(C(F)F)o2)cn1 [Compound 74]
(Q) O=C1OCC(c2ccccn2)=NN1Cc1ncc(-c2nnc(C(F)F)o2)cc1F [Compound 73]
(R) CC(C)N1CCN(c2cccc(-c3nn(Cc4ccc(-c5nnc(C(F)F)o5)cn4)c(=S)o3)n2)CC1 [Compound 101]
[ask] Would you mind ranking these compounds by ascending pIC50? # the answer lists labels in the order requested
[reply] Q, P, R
(Q: 6.95, P: 7.22, R: 7.71)

(a) CC1CCN(Cc2ccc(-c3nn(Cc4ccc(-c5nnc(C(F)F)o5)cn4)c(=O)o3)c(F)c2)CC1 [Compound 4]
(b) FC(F)c1nnc(-c2ccc(Cn3nc(-c4cccc(CN5CC[C@@H](F)C5)c4)oc3=S)nc2)o1 [Compound 89]
[ask] Input pair: a , b . Output: entry with lower pIC50. Your answer should be the label of the entry you select.
[reply] a

Attribution: patent US20260327214A1
